src = PubChem BioAssay (Tox21)

assay: qHTS assay to identify small molecule agonists of the retinoic acid receptor (RAR) signaling pathway (AID 1159553); details: C3RL4 RARE luciferase reporter, agonist, 6 h
Results filed as inconclusive are left out. Activity calls are given as the source filed them. Calls follow the shape of the dose curve; as a rule, active = well fitted activation curve with a large enough effect in the repeat runs; inconclusive = weak or mixed curves, or effect the other way; inactive = no such curve, though single readings can be large or run the other way.
Output constraint: value belongs to true (1) for active, false (0) for inactive

Q. Recorded test outcome, item C#CCOS(=O)OC1CCCCC1Oc1ccc(C(C)(C)C)cc1 (centres undefined)
A. false (0)

Q. So what was the verdict on `CCCCCCCCCCCOC(=O)c1ccccc1C(=O)OCCCCCCCCCCC` in this test?
A. false (0)

Q. Look up the recorded call for `N[C@@H](Cc1ccc(N(CCCl)CCCl)cc1)C(=O)O` in this test.
A. false (0)

Q. Recorded test outcome, item `C#C[C@]1(O)CC[C@H]2[C@@H]3CCC4=CC(=O)CC[C@]4(C)[C@H]3CC[C@@]21C`
A. false (0)

Q. Given `CCOCN(C(=O)CCl)c1c(C)cccc1CC` , state the outcome it received in this test.
A. false (0)

Q. What was the test verdict on `CCCCNC(=O)n1c(NC(=O)OC)nc2ccccc21` ?
A. true (1)

Q. Which outcome was assigned to `O=Cc1ccco1` in this test?
A. false (0)

Q. // param item: `CCN(CC)C(=O)/C(Cl)=C(\C)OP(=O)(OC)OC` ; yields the recorded call
A. false (0)

Q. Assay outcome for `S=C1NCCN1` : what was it?
A. false (0)

Q. Assay result, entry `CC(C)NC(C)C` — outcome?
A. false (0)

Q. I would be grateful if you could indicate the recorded call for `CC(C)c1ccc(CO)cc1` .
A. false (0)

Q. Which outcome was entered for the compound `O=S(=O)(Oc1ccc(Cl)cc1)c1ccc(Cl)cc1` in this test?
A. false (0)

Q. Status in this test for `CCN(N=O)C(N)=O` ?
A. false (0)

Q. Field: outcome | Entry: `O=C(CCl)c1ccccc1`
A. false (0)

Q. What outcome does the record of this test show for `Oc1cc(Cl)ccc1Cl` ?
A. false (0)

Q. Each compound tested received a call. Report the one for CCOC(=O)C(C)OC(=O)c1cc(Oc2ccc(C(F)(F)F)cc2Cl)ccc1[N+](=O)[O-] (centres undefined) .
A. false (0)

Q. Test call, this compound: `O=P(O)(O)CCCl`
A. false (0)

Q. Hey, what did the test say about `CC(C)N(C(=O)SCC(Cl)=C(Cl)Cl)C(C)C` ?
A. false (0)

Q. Given `OCC(O)CO` , state the outcome it received in this test.
A. false (0)

Q. Which outcome was assigned to `N#CCCCl` in this test?
A. false (0)

Q. Kindly provide the recorded test outcome for the following compound: CCC(C)c1cc([N+](=O)[O-])cc([N+](=O)[O-])c1O (centres undefined)
A. false (0)

Q. Recorded test call requested for `Nn1cnnc1`
A. false (0)

Q. Assay outcome for `CCOc1cc(C=O)ccc1O` : what was it?
A. false (0)

Q. Per the assay record, what outcome was assigned to `N#Cc1cc(Br)c(O)c(Br)c1` ?
A. false (0)

Q. State the result this test recorded for CC(C)=CC1C(C(=O)OCc2coc(Cc3ccccc3)c2)C1(C)C (centres undefined) .
A. false (0)

Q. For this compound, state the assay outcome: ClC1C(Cl)C(Cl)C(Cl)C(Cl)C1Cl (centres undefined)
A. false (0)

Q. What outcome does the record of this test show for `C=CCc1ccc2c(c1)OCO2` ?
A. false (0)

Q. I would be grateful if you could indicate the recorded call for `C=C(C)[C@H]1Cc2c(ccc3c2O[C@@H]2COc4cc(OC)c(OC)cc4[C@@H]2C3=O)O1` .
A. false (0)

Q. Call for entry `CC(C)Oc1cc(-n2nc(C(C)(C)C)oc2=O)c(Cl)cc1Cl` :
A. false (0)
